Origin of the recorded values: patent US9650395B2

# Test system: control Gram-negative E. coli 25922 strain
# assay-method-text: Antibacterial activity, microbroth dilution MIC, E. coli 25922
# Type: cell-based, Escherichia coli
# test-parameters: Escherichia coli; E. coli 25922, microbroth dilution; read-out: MIC, 25922
readout: MIC

Some compounds with recorded MIC:
[
  {
    "compound": "CCc1cc(C(=O)O)c(=O)[nH]c1-c1ccc(N2CCC(NC3CC3)C2)cc1 (stereo not drawn)",
    "study-target": "control Gram-negative E. coli 25922 strain",
    "observed-measurement": "1 to 3.5 µg/mL"
  },
  {
    "compound": "CCc1c(-c2ccc(F)cc2)[nH]c(=O)c(C(=O)O)c1O",
    "study-target": "control Gram-negative E. coli 25922 strain",
    "observed-measurement": "12.5 to 150 µg/mL"
  },
  {
    "compound": "CCc1cc(C(=O)O)c(=O)[nH]c1-c1ccnn1C",
    "study-target": "control Gram-negative E. coli 25922 strain",
    "observed-measurement": "12.5 to 150 µg/mL"
  },
  {
    "compound": "CCc1cc(C(=O)O)c(=O)[nH]c1-c1ccc(N2CCC[C@@H]2COC)cc1",
    "study-target": "control Gram-negative E. coli 25922 strain",
    "observed-measurement": "3.5 to 12.5 µg/mL"
  },
  {
    "compound": "CCc1cc(C(=O)O)c(=O)[nH]c1-c1ccc(N2CCC(O)(CC)C2)cc1 (stereo not drawn)",
    "study-target": "control Gram-negative E. coli 25922 strain",
    "observed-measurement": "1 to 3.5 µg/mL"
  }
]

Qu. Which MIC value belongs to CCc1cc(C(=O)O)c(=O)[nH]c1-c1ccc(N2C[C@H]3CC[C@@H](N(C)C)[C@H]3C2)cc1.Cl ?
Ans. 3.5 to 12.5 µg/mL

Qu. Which MIC value belongs to CCc1cc(C(=O)O)c(=O)[nH]c1-c1ccc(N2CCC(CNCc3ccccc3Cl)C2)cc1 (stereo not drawn) ?
Ans. 1 to 3.5 µg/mL

Qu. Which MIC value belongs to CCc1cc(C(=O)O)c(=O)[nH]c1-c1ccc(N2CCNCC2)cc1.O=C(O)C(F)(F)F ?
Ans. 12.5 to 150 µg/mL

Qu. Which MIC value belongs to CCc1c(-c2ccc(OC)cc2N(C)C)[nH]c(=O)c(C(=O)O)c1O ?
Ans. 12.5 to 150 µg/mL
